experiment: soluble on expression in E. coli; label from the status in PepcDB or PDB records
recordedEndpoint: soluble on expression in E. coli

Give recorded soluble on expression in E. coli. MSKSGVPRLLTASERERLEPFIDQIHYSPRYADDEYEYRHVMLPKAMLKAIPTDYFNPETGTLRILQEEEWRGLGITQSLGWEMYEVHVPEPHILLFKREKDYQMKSQQRGG soluble

Give recorded soluble on expression in E. coli. MSLNYLSGQAANPRGIIGEITTKIWSSYFEDLSKWTINNTEMAGVTKVLDVGYGGGSNVKNLVNLDQNLTIYGIDISKESYKTASALNKKAISDGKVKLTVADVADMDYREESFDLVYAIQTHMYWDNLQKGFEEIYRVMSQEGVLILSSEKDKIDYHMDEYKTTASLTALLKEIGFREVVEKEKGNWVLYTVKKEGHHHHHH soluble

Give recorded soluble on expression in E. coli. MCSSDSLQLHNVFVYGSFQDPDVINVMLDRTPEIVSATLPGFQRFRLKGRLYPCIVPSEKGEVHGKVLMGVTSDELENLDAVEGNEYERVTVGIVREDNSEKMAVKTYMWINKADPDMFGEWNFEEWKRLHKKKFIETFKKIMECKKKPQGQGNDDISHVLREDQ soluble

----------
assay: soluble on expression in E. coli; label from the status in PepcDB or PDB records
recordedEndpoint: soluble on expression in E. coli

Give recorded soluble on expression in E. coli. FPDPSFIIDAEGRFLDCLTDPETMLTVDDTDTLVGQTLHEFFPHDTADSLLAAVRAALRTGSFQSVEYKLQVPSDKRWFEARVAPLESRAYDPDTVIFVARDI not soluble

Give recorded soluble on expression in E. coli. MGSDKIHHHHHHMAFTSDSLAIFLAVLDAGSFSAAARKLGRVPSAVSMAIAQLEAELDLPLFDRATRKALPTNAALALEPQARQVICQLNLLDAQALQLHKGLEKRLTIAMAPELQTGRWSQPLEILAQAFPSLEVEVRSATQTEAIRLLHDGSVQLALVFERPGIDERESFLEAGSQLLVAVASPRHPAGQNSGSPLPEEAFAEQRQIIVASGKATGSDPRMVLSRRIWLTDSYLATLDLVQSGLGWAYLPQPLVEPLIASGALAEVRFDNMANRLRLWVDIIWIKSRPLGLGARRYLEVMRQLFEKEPPRA not soluble

----------
assay: soluble on expression in E. coli; label from the status in PepcDB or PDB records
recordedEndpoint: soluble on expression in E. coli

Give recorded soluble on expression in E. coli. ADTPGEATPPPRKKKDIRDYNDADMARLLEQWEKDDDIEEGDLPEHKRPSAPIDFSKLDPGKPESILKMTKKGKTLMMFVTVSGNPTEKETEEITSLWQGSLFNANYDVQRFIVGSDRAIFMLRDGSYAWEIKDFLVSQDRCAEVTLEGQMYPGKGGGSKEKNKTKPEKAKKKEGDPKPRASKEDNRAGSRREDL soluble

Give recorded soluble on expression in E. coli. MGSDKIHHHHHHMMKLTALVDNTRLDSRPELAVERGLSFHVETMGSQILFDTGSSSTFCENAALMNISIQDVDLAVISHRHHDHCNGTTHFIERNSKAKIYLKDCEDKNYLFKAFGFKNDVGINKELLKNASERLIFVEHTTEILPNIFIITEISDKYEKPKGNRYLYTQSENGYKNDTFDHELLLVVKESDGLIVFTGCAHSGVLNMVETAIELFPNHRIKAVVGGFHLVGLPLLNSIGGTKQDIQAIGQALSHYPIDKLYTGHCTGMKAFGLLKEVLGDRLEHLPTGRSVLI not soluble

Give recorded soluble on expression in E. coli. MKTFESLFAELSEKAQTRPEGSLTVDELDKGTHFIGKKIIEEAGETWMAAEYEGADRTAEEMSQLLYHVQVMMIKHGLTLEDVYKHL soluble

Give recorded soluble on expression in E. coli. MDITKADEPVIDEKDYPKPSDAELKAKLTPLQYSVTQNKHTERSFSNEYWDNFQPGIYVDITTGEPVFSSNDKFESGCGWPSFTKPIIKDVVHYETDNSFNMQRTEVLSRAGNAHLGHVFDDGPKDKGGLRYCINSASIKFIPLAEMEKAGYGYLIQSIKK not soluble
